experiment: Oral bioavailability in rats at escalating doses, LC/MS/MS; settings: male, Sprague-Dawley, rat, in vivo, po, 6 mg/kg
measureName: Cmax (ng/mL)
Quick note: give the figure in ng/mL, leave out the unit.

// Cmax lookup, molecule = CC(Cc1ccccc1)NC(=O)C(N)CCCCN [L-lysine-d-amphetamine] , result: 677

###

test: Intravenous bioavailability of hydrocodone conjugates in rats, LC/MS/MS; conditions: intravenous, 1 mg/kg dose, 30 Minutes
Where a SMILES comes first, the peptide text is derived from it. The star is where a group is joined. X1 = COc1ccc2c3c1O[C@H]1C(O*)=CC[C@H]4[C@@H](C2)N(C)CC[C@]314
Reported hydrocodone plus hydromorphone concentration values for a set of molecules
// units = ng/mL; emit number, no label

- molecule: "CC[C@H](C)[C@H](NC(=O)[C@H](Cc1ccc(O)cc1)NC(=O)[C@@H](N)Cc1ccc(O)cc1)C(=O)OC1=CC[C@H]2[C@H]3Cc4ccc(OC)c5c4[C@@]2(CCN3C)[C@H]1O5 [YYI-HC, Tyr-Tyr-Ile-Hydrocodone]"
  scaleUnit: "ng/mL"
  valueMeasured: 13
- molecule: "COc1ccc2c3c1O[C@H]1C(OC(=O)[C@H](Cc4ccccc4)NC(=O)[C@H](Cc4ccccc4)NC(=O)[C@H](Cc4ccccc4)NC(=O)[C@H](CCC(=O)O)NC(=O)[C@@H](N)CCC(=O)O)=CC[C@H]4[C@@H](C2)N(C)CC[C@]314 [EEFFF[SEQ ID NO: 3]-HC] (H-EEFFF-X1)"
  scaleUnit: "ng/mL"
  valueMeasured: 140
- molecule: "CC[C@H](C)[C@H](NC(=O)[C@H](Cc1ccccc1)NC(=O)[C@H](Cc1ccccc1)NC(=O)[C@H](Cc1ccc(O)cc1)NC(=O)[C@@H](N)Cc1ccc(O)cc1)C(=O)OC1=CC[C@H]2[C@H]3Cc4ccc(OC)c5c4[C@@]2(CCN3C)[C@H]1O5 [YYFFI[SEQ ID NO: 8]-HC] (H-YYFFI-X1)"
  scaleUnit: "ng/mL"
  valueMeasured: 22

Let us move to another entry and its hydrocodone plus hydromorphone concentration.
# hydrocodone plus hydromorphone concentration of CC[C@H](C)[C@H](NC(=O)[C@H](Cc1ccccc1)NC(=O)[C@H](Cc1ccccc1)NC(=O)[C@H](CCC(=O)O)NC(=O)[C@@H](N)CCC(=O)O)C(=O)OC1=CC[C@H]2[C@H]3Cc4ccc(OC)c5c4[C@@]2(CCN3C)[C@H]1O5 [EEFFI[SEQ ID NO: 5]-HC] (H-EEFFI-X1) = 78

Data origin: patent US7375083B2
